test system: TRITICUM AESTIVUM, CV. APOLLO; test: Preemergence herbicidal evaluation, TRZAWO (Wheat, Winter, CV. APOLLO); assay type: in vivo; settings: Rate 0.500 kg/ha, rated four to five weeks after treatment
REPORTED METRIC: TRZAWO herbicidal rating
Please reply with the value in numeric form only.

// worked examples, TRZAWO herbicidal rating included
Cn1c(=O)n(CC(=O)OC(C)(C)C)c(=O)n(-c2cc(Oc3c(F)cc(C(F)(F)F)cc3Cl)ccc2F)c1=O [Compound 41]
0.0
COC(=O)Cn1c(=O)n(C)c(=O)n(-c2cc(Oc3ccccn3)ccc2[N+](=O)[O-])c1=O [Compound 38]
1.0
Cn1c(=O)n(CC(N)=O)c(=O)n(-c2cccc(Oc3ccc(C(F)(F)F)cc3Cl)c2)c1=O [Compound 46]
1.0
CC(C)OC(=O)Cn1c(=O)n(C)c(=O)n(-c2cc(Oc3ncc(C(F)(F)F)cc3Cl)ccc2Br)c1=O [Compound 44]
0.0
COC(=O)Cn1c(=O)n(C)c(=O)n(-c2cc(Oc3ccc(Cl)cc3Cl)ccc2Br)c1=O [Compound 43]
0.5
COC(=O)Cn1c(=O)n(C)c(=O)n(-c2cc(Oc3cc(Cl)cc(Cl)c3)ccc2[N+](=O)[O-])c1=O [Compound 35]
0.0
COC(=O)Cn1c(=O)n(C)c(=O)n(-c2cc(Oc3ccc([S+](C)[O-])cc3Cl)ccc2[N+](=O)[O-])c1=O (centres unmarked) [Compound 36]
0.0

Next:
Q: Which TRZAWO herbicidal rating value belongs to COC(=O)Cn1c(=O)n(C)c(=O)n(-c2cc(Oc3ccc(SC)cc3Cl)ccc2[N+](=O)[O-])c1=O [Compound 34] ?
Ans: 0.0

###

system: ECHINOCHLOA CRUS-GALLI, (L) BEAU; assay: Postemergence herbicidal evaluation, ECHCG (Barnyardgrass); format: in vivo; set-up: key: 0-9 visual rating scale vs untreated control; conditions: 0.063 kg/ha
Assign class by Herbicidal effect rating, ECHCG: not lower than 2 means met; lower than 2 means not met.

The examples below pair each entry with its known result.
COC(=O)Cn1c(=O)n(C)c(=O)n(-c2cc(Oc3ccc(C(F)(F)F)cc3Cl)ccc2[N+](=O)[O-])c1=O
met
Cn1c(=O)[nH]c(=O)n(-c2cc(Oc3c(F)cc(C(F)(F)F)cc3Cl)ccc2F)c1=O [C, reference compound]
not met
COC(=O)Cn1c(=O)n(C)c(=O)n(-c2cc(Oc3c(F)cc(C(F)(F)F)cc3Cl)ccc2Br)c1=O
met
COC(=O)Cn1c(=O)n(C)c(=O)n(-c2cc(Oc3c(F)cc(C(F)(F)F)cc3Cl)ccc2F)c1=O
met

Q: Reported Herbicidal effect rating, ECHCG at or above 2? Cn1c(=O)[nH]c(=O)n(-c2cc(Oc3c(F)cc(C(F)(F)F)cc3Cl)ccc2Br)c1=O [A, reference compound]
Ans: not met

###

Each record here notes measured IPOSS.
system: IPOMOEA SPP.; test: Postemergence herbicidal evaluation, IPOSS (Morningglory spp.); type: in vivo; details: Rate 0.125 kg/ha

Q: Field request: IPOSS | item: Cn1c(=O)[nH]c(=O)n(-c2cc(Oc3c(F)cc(C(F)(F)F)cc3Cl)ccc2[N+](=O)[O-])c1=O [D, reference compound]
Ans: 9.0

###

tested on: CHENOPODIUM ALBUM, L.; assay: Preemergence herbicidal evaluation, CHEAL (Lambsquarters, Common); format: in vivo; settings: Rate 0.125 kg/ha, four to five weeks after treatment
REPORTED METRIC: CHEAL rating
Kindly provide the number alone.

// known answers, use as guide
COC(=O)Cn1c(=O)n(C)c(=O)n(-c2cc(Oc3ccc(C(F)(F)F)cc3Cl)ccc2[N+](=O)[O-])c1=O [Compound 3]
9.0
CCOC(=O)Cn1c(=O)n(CC(=O)OC)c(=O)n(-c2cc(Oc3c(F)cc(C(F)(F)F)cc3Cl)ccc2C#N)c1=O [Compound 12]
0.0
CCOC(=O)Cn1c(=O)n(C)c(=O)n(-c2cc(Oc3c(F)cc(C(F)(F)F)cc3Cl)ccc2C#N)c1=O [Compound 11]
9.0

Q: Please give the measured CHEAL rating for this compound: CCOC(=O)Cn1c(=O)[nH]c(=O)n(-c2cc(Oc3c(F)cc(C(F)(F)F)cc3Cl)ccc2C#N)c1=O [Compound 10]
Ans: 9.0

###

test system: ECHINOCHLOA CRUS-GALLI, (L) BEAU; assay: Postemergence herbicidal evaluation, ECHCG (Barnyardgrass); type: in vivo; design: key: 0-9 visual rating scale vs untreated control; conditions: Rate 0.016 kg/ha
Catalogue of compounds with associated ECHCG
The reply should be a number, written without any unit.

Cn1c(=O)[nH]c(=O)n(-c2cc(Oc3ccc(C(F)(F)F)cc3Cl)ccc2Cl)c1=O [F, reference compound]
0.0
COC(=O)Cn1c(=O)n(C)c(=O)n(-c2cc(Oc3ccc(C(F)(F)F)cc3Cl)ccc2Cl)c1=O [Compound 39]
1.5
COC(=O)Cn1c(=O)n(C)c(=O)n(-c2cc(Oc3c(F)cc(C(F)(F)F)cc3Cl)ccc2[N+](=O)[O-])c1=O [Compound 16]
0.5

Q: ECHCG lookup needed for Cn1c(=O)[nH]c(=O)n(-c2cc(Oc3c(F)cc(C(F)(F)F)cc3Cl)ccc2[N+](=O)[O-])c1=O [D, reference compound] , thanks.
Ans: 3.0

###

Reported Herbicidal effect rating, ECHORC is given for each of the following molecules.
system: ECHINOCHLOA ORYZOIDES (ARD.)FRITSCH; assay: Preemergence weed control under flooded paddy conditions, ECHORC (Watergrass (Calif.)); format: in vivo; details: 0.500 kg/ha, preemergence, 3-4 weeks after treatment

Q: Which Herbicidal effect rating, ECHORC is reported with ECHINOCHLOA ORYZOIDES (ARD.)FRITSCH for this entry: COC(=O)Cn1c(=O)n(C)c(=O)n(-c2cc(Oc3cc(OC)c(Cl)cc3Cl)ccc2[N+](=O)[O-])c1=O ?
Ans: 0.0

Q: Check C=CCn1c(=O)n(CC(=O)OCC)c(=O)n(-c2cc(Oc3ccc(C(F)(F)F)cc3Cl)ccc2[N+](=O)[O-])c1=O too.
Ans: 9.0

Q: Could you do the same for Cn1c(=O)n(CC(N)=O)c(=O)n(-c2cc(Oc3ncc(C(F)(F)F)cc3Cl)ccc2Br)c1=O , please?
Ans: 0.0

###

test system: CHENOPODIUM ALBUM, L.; experiment: Postemergence herbicidal evaluation, CHEAL (Lambsquarters, Common); type: in vivo; conditions: Rate 0.125 kg/ha
REPORTED METRIC: CHEAL rating
API note: the answer field is a bare number with no unit suffix.

Consider the reported CHEAL rating for these compounds:
CC(C)OC(=O)Cn1c(=O)n(C)c(=O)n(-c2cc(Oc3ncc(C(F)(F)F)cc3Cl)ccc2Br)c1=O
9.0
COC(=O)Cn1c(=O)n(C)c(=O)n(-c2cc(Oc3ccc([S+](C)[O-])cc3Cl)ccc2[N+](=O)[O-])c1=O (stereo not drawn)
8.0

# ---- query compound ----
Q: What value of CHEAL rating has been reported for the following compound? COC(=O)Cn1c(=O)n(C)c(=O)n(-c2cc(Oc3ccc(C(F)(F)F)cc3Cl)ccc2Cl)c1=O
Ans: 9.0

###

Measured IPOSS rating of individual entries
tested on: IPOMOEA SPP.; test: Postemergence herbicidal evaluation, IPOSS (Morningglory spp.); format: in vivo; conditions: Rate 0.500 kg/ha
Form field (numeric): enter value without unit.

Check out these entries, answers already filled in.
COC(=O)Cn1c(=O)n(C)c(=O)n(-c2cc(Oc3ccc(C(F)(F)F)cc3Cl)ccc2Cl)c1=O
9.0
COC(=O)Cn1c(=O)n(C)c(=O)n(-c2cc(Oc3cc(Cl)cc(Cl)c3Cl)ccc2[N+](=O)[O-])c1=O
0.0
CC(C)OC(=O)Cn1c(=O)n(C)c(=O)n(-c2cc(Oc3ncc(C(F)(F)F)cc3Cl)ccc2Br)c1=O
9.0
COC(=O)Cn1c(=O)n(C)c(=O)n(-c2cc(Oc3ccc(C#N)cc3)ccc2[N+](=O)[O-])c1=O
0.0
COC(=O)Cn1c(=O)n(C)c(=O)n(-c2cc(Oc3ccccn3)ccc2[N+](=O)[O-])c1=O
0.0

Q: Recorded IPOSS rating for COC(=O)Cn1c(=O)n(C)c(=O)n(-c2cc(Oc3ncc(C(F)(F)F)cc3Cl)ccc2Br)c1=O , please?
Ans: 9.0

###

// reported Herbicidal effect rating, CYPSE for each item listed
test system: CYPERUS SEROTINUS, ROTTB.; assay: Preemergence weed control under flooded paddy conditions, CYPSE (Flatsedge); format: in vivo; conditions: 0.500 kg/ha, preemergence, 3-4 weeks after treatment
// response body must contain only the number

Cn1c(=O)n(CC(N)=O)c(=O)n(-c2cc(Oc3ncc(C(F)(F)F)cc3Cl)ccc2Br)c1=O
0.0
COC(=O)Cn1c(=O)n(C)c(=O)n(-c2cc(Oc3ccc([N+](=O)[O-])cc3F)ccc2[N+](=O)[O-])c1=O
0.0
COC(=O)Cn1c(=O)n(C)c(=O)n(-c2cc(Oc3ccc(SC)cc3Cl)ccc2[N+](=O)[O-])c1=O
0.0
COC(=O)Cn1c(=O)n(C)c(=O)n(-c2cc(Oc3ccc(F)c(F)c3F)ccc2[N+](=O)[O-])c1=O
0.0
COC(=O)Cn1c(=O)[nH]c(=O)n(-c2cc(Oc3ccc(Cl)cc3Cl)ccc2[N+](=O)[O-])c1=O
0.0
COC(=O)Cn1c(=O)n(C)c(=O)n(-c2cc(Oc3ccc(C#N)cc3)ccc2[N+](=O)[O-])c1=O
0.0

Q: Entry COC(=O)Cn1c(=O)n(C)c(=O)n(-c2cc(Oc3c(Cl)cccc3Cl)ccc2[N+](=O)[O-])c1=O : reported Herbicidal effect rating, CYPSE = ?
Ans: 0.0

Q: Same question, COC(=O)Cn1c(=O)n(C)c(=O)n(-c2cc(Oc3cc(Cl)c(Cl)cc3Cl)ccc2[N+](=O)[O-])c1=O this time
Ans: 0.0
